# target.entity: Tumour suppressor p53/oncoprotein Mdm2 (Homo sapiens, UniProt P04637+Q00987)
# Sequence (P04637 whole entry): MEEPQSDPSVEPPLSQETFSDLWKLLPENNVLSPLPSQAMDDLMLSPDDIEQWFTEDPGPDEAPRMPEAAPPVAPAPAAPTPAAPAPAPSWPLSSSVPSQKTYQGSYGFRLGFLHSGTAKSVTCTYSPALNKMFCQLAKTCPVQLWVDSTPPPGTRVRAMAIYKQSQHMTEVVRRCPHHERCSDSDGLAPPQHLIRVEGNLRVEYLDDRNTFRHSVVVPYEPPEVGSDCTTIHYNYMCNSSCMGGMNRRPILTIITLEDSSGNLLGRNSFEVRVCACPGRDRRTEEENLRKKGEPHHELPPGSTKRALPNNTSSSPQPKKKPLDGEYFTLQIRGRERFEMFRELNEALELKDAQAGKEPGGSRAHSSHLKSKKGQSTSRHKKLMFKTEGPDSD
# Sequence (Q00987 whole entry): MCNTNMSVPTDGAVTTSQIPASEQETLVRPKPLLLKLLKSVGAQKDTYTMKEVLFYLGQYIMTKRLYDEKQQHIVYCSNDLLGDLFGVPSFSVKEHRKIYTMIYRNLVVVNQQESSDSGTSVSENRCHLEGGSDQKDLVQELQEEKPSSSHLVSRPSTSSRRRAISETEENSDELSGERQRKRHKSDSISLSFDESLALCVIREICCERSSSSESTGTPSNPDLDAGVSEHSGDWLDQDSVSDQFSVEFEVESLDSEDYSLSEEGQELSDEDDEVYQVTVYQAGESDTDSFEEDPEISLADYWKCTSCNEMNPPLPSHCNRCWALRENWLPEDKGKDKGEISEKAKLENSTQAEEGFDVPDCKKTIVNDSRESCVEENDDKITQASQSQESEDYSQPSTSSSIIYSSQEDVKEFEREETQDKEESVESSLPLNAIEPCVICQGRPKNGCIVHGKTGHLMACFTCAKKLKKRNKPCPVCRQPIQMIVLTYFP
# assay.info: Inhibition of p53-MDM2 expressed in Escherichia coli BL-21 (DE3) after 1 hr by fluorescence polarization competitive binding assay
property.label: Ki

Examples from the recorded data:
compound | Ki
CCC1=NC(c2ccc(Cl)cc2)C(c2ccc(Cl)cc2)N1C(=O)Nc1ccc(N2CCCC2)cc1 (stereo not given) | Not Active
CCC1=NC(c2ccc(Cl)cc2)C(c2ccc(Cl)cc2)N1C(=O)N(CC)CC (stereo not given) | Not Active
CCN(CC)CC(=O)N1C(c2ccc(OC)cc2OC(C)C)=NC(c2ccc(Cl)cc2)C1c1ccc(Cl)cc1 (stereo not given) | Not Active
CCC1=NC(c2ccc(Cl)cc2)C(c2ccc(Cl)cc2)N1C(=O)NCC(=O)N1CCOCC1 (stereo not given) | Not Active

Req: Give the measured Ki of CCC1=NC(c2ccc(Cl)cc2)C(c2ccc(Cl)cc2)N1C(=O)N1CCN(C)CC1 (stereo not given) .
Resp: Not Active
